test: Components of the Cytosolic LPS Sensing Pathway: Gene Identification via Genome-wide siRNA Screen; settings: RAW264.7 macrophages, IL-1a HTRF, actives lie on both sides, screened at 100 nM (by protocol), cells primed 5 h with Pam3CSK4 first
Out of some 53,000 sequences screened, about 3,700 (7%) were called active. Only a selection was taken, and actives are over-represented in it overall.
Hi, to clarify the labels: yes covers z-score from 0.2 upward, no covers anything below 0.2.

GCUUUCACUAAUCAGUACATT against Setd5; no
GGCCGUACUAGAUUUUCUUTT against Olfr695; yes
GGAAAAGACAUCAGAUGAATT against Mrpl1; yes
GGAAAUAUGGCAAGAAUUUTT against Rgs7; yes
GGUCUUCAUCUGUCCAACUTT against Tmlhe; no

Req: Does the sequence GGAAGAAUUCUCAAAGAAUTT against Scyl3 have recorded z-score that is 0.2 or more?
Resp: no
